Quick reference: pKd of the listed items.
assay_target: T1, Mdm4 (1-125) (human, UniProt O15151 1-125)
T1 construct: range 1-125; also called MDMX; Hdm4
T1 sequence (looked up): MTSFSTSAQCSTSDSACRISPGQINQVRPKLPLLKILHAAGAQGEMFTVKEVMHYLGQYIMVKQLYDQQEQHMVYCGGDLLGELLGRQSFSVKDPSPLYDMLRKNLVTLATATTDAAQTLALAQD
assay_procedure: apparent Kd, competitive fluorescence polarization; displacement of FAM-…-NH2 from Mdm4 (1-125)
Bridges are numbered along the chain shown (N, C = ends). [ ]: non-standard residue; d: D form. R8 = C=CCCCCCC[C@@](C)(N)C(=O)O; S5 = C=CCCC[C@](C)(N)C(=O)O
Lab note — pKd values are minus log10 of concentrations in M.

Please review the entries below; each comes with its answer.
Ac-TSF[R8]EYWFLL[S5]-NH2 (staple 4-11; SMILES CC(=O)N[C@H](C(=O)N[C@@H](CO)C(=O)N[C@@H](Cc1ccccc1)C(=O)N[C@]1(C)CCCCCCC=CCCC[C@@](C)(C(N)=O)NC(=O)[C@H](CC(C)C)NC(=O)[C@H](CC(C)C)NC(=O)[C@H](Cc2ccccc2)NC(=O)[C@H](Cc2c[nH]c3ccccc23)NC(=O)[C@H](Cc2ccc(O)cc2)NC(=O)[C@H](CCC(=O)O)NC1=O)[C@@H](C)O, also called Ac-TSFXEYWFLLX-NH2) [sMTide-07] | 6.40
Ac-TSF[R8]EYWKLL[S5]-NH2 (staple 4-11; SMILES CC(=O)N[C@H](C(=O)N[C@@H](CO)C(=O)N[C@@H](Cc1ccccc1)C(=O)N[C@]1(C)CCCCCCC=CCCC[C@@](C)(C(N)=O)NC(=O)[C@H](CC(C)C)NC(=O)[C@H](CC(C)C)NC(=O)[C@H](CCCCN)NC(=O)[C@H](Cc2c[nH]c3ccccc23)NC(=O)[C@H](Cc2ccc(O)cc2)NC(=O)[C@H](CCC(=O)O)NC1=O)[C@@H](C)O, also called Ac-TSFXEYWKLLX-NH2) [sMTide-05] | 7.52

Return reported pKd; argument: Ac-TSF[R8]EYWYLL[S5]-NH2 (staple 4-11; SMILES CC(=O)N[C@H](C(=O)N[C@@H](CO)C(=O)N[C@@H](Cc1ccccc1)C(=O)N[C@]1(C)CCCCCCC=CCCC[C@@](C)(C(N)=O)NC(=O)[C@H](CC(C)C)NC(=O)[C@H](CC(C)C)NC(=O)[C@H](Cc2ccc(O)cc2)NC(=O)[C@H](Cc2c[nH]c3ccccc23)NC(=O)[C@H](Cc2ccc(O)cc2)NC(=O)[C@H](CCC(=O)O)NC1=O)[C@@H](C)O, also called Ac-TSFXEYWYLLX-NH2) [sMTide-06]
6.48

Try the binder Ac-SF[R8]EYWALL[S5]-NH2 (staple 3-10; SMILES CC(=O)N[C@@H](CO)C(=O)N[C@@H](Cc1ccccc1)C(=O)N[C@]1(C)CCCCCCC=CCCC[C@@](C)(C(N)=O)NC(=O)[C@H](CC(C)C)NC(=O)[C@H](CC(C)C)NC(=O)[C@H](C)NC(=O)[C@H](Cc2c[nH]c3ccccc23)NC(=O)[C@H](Cc2ccc(O)cc2)NC(=O)[C@H](CCC(=O)O)NC1=O, also called Ac-SFXEYWALLX-NH2) [sMTide-04]
7.20
